Test system: giant foxtail
Assay: Test A preemergence
Format: in vivo, Setaria faberii
Conditions: 125 g ai/ha, 0 to 100 scale where 0 is no effect and 100 is complete control
Friendly reminder: Plant response rating, Foxtail, Giant below 70 is fulfilled, at or above is not fulfilled.

Fc1cccc(Oc2ncc(Cl)cn2)c1-n1cc(I)cn1 ... not fulfilled
FC(F)c1cnn(-c2ccccc2Oc2ncc(Br)cn2)c1 ... not fulfilled
N#Cc1cccc(Oc2ncc(I)cn2)c1-n1cc(Cl)cn1 ... fulfilled
O=Cc1cccc(Oc2ncc(F)cn2)c1-n1cc(C(F)(F)F)cn1 ... fulfilled
Cc1nn(-c2ccccc2Oc2ncc(Cl)cn2)cc1Cl [Compound 39] ... fulfilled
N#Cc1cnc(Oc2cccc(C(F)F)c2-n2cc(Br)cn2)nc1 ... fulfilled
Cc1nn(-c2ccccc2Oc2ncc(Cl)cn2)cc1Cl [Compound 38] ... fulfilled
FCc1cccc(Oc2ncc(Br)cn2)c1-n1cc(C(F)(F)F)cn1 ... not fulfilled
N#Cc1cccc(Oc2ncc(Br)cn2)c1-n1cc(I)cn1 ... not fulfilled
CC(C)Oc1cnn(-c2c(C#N)cccc2Oc2ncc(F)cn2)c1 ... not fulfilled

[in] Please indicate whether the reported Plant response rating, Foxtail, Giant of N#Cc1cccc(Oc2ncc(I)cn2)c1-n1cc(Br)cn1 is strictly below 70.
[out] fulfilled

[in] State whether 70 exceeds Plant response rating, Foxtail, Giant recorded for Clc1cnc(Oc2ccccc2-n2cnc(Br)n2)nc1 .
[out] fulfilled

----------
So I've got a bunch of molecules here, and I need their Plant response rating, Ragweed values.
System: ragweed
Assay: Test A postemergence
Assay type: in vivo, Ambrosia elatior
Settings: 1000 g ai/ha, 0 to 100 scale, 0 no effect, 100 complete control
Numbers only.

Required: Plant response rating, Ragweed, one value per molecule below.
1. Fc1cccc(Oc2ncc(Cl)cn2)c1-n1cc(C2CC2)nn1
2. CC(C)(C)NS(=O)(=O)c1cnn(-c2ccccc2Oc2ncc(Cl)cn2)c1
3. Fc1cccc(Oc2ncc(Cl)cn2)c1-n1ccnn1
4. FCc1cn(-c2c(F)cccc2Oc2ncc(Cl)cn2)nn1
5. CCOC(=O)c1cn(-c2ccccc2Oc2ncc(Cl)cn2)nn1

[out]
[100, 20, 80, 100, 0]

----------
Tested on: soybean
Experiment: Test C preemergence
Type: in vivo, Glycine max
Details: 125 g ai/ha, preemergence; scale 0 (no effect) to 100 (complete control)
parameterMeasured: Soybean plant response rating
One number for each entry.

Would you please look over these solved cases?
N#Cc1cnn(-c2c(Oc3ncc(Cl)cn3)cccc2C(F)F)c1 [Compound 236] ... 95
COc1cnn(-c2c(C#N)cccc2Oc2ncc(Cl)cn2)c1 [Compound 137] ... 85

[in] Query (compound): CCOc1cnn(-c2c(C#N)cccc2Oc2ncc(Cl)cn2)c1 [Compound 92] ; field requested: Soybean plant response rating
[out] 95

----------
System: velvetleaf
Experiment: Test A postemergence
Assay type: in vivo, Abutilon theophrasti
Settings: 500 g ai/ha, 0 to 100 scale, 0 no effect, 100 complete control
Text: […]
parameterMeasured: Plant response rating, Velvetleaf

FC(F)(F)c1cnc(Oc2ccccc2-n2cc(C(F)(F)F)cn2)nc1 ... 100

Batch request: Plant response rating, Velvetleaf per item, same order as input.
1. FC(F)(F)c1cnn(-c2ccccc2Oc2ncc(Cl)cn2)c1
2. Brc1cnc(Oc2ccccc2-n2cc(Br)cn2)nc1
3. Cc1nn(-c2ccccc2Oc2ncc(Cl)cn2)cc1Br

[out]
1: 100; 2: 100; 3: 40
